Target: T1, His-tagged mature protein disulfide-isomerase (PDI) (human, UniProt P07237 18-508)
T1 construct: protein disulfide-isomerase (PDI), human, mature protein, domains a, b, b', a'; calculated mass of the construct 56379 Da; Treated with 1 mM DTT before ITC and in the BLI assays with the β-hairpin
T1 sequence (P07237 18-508): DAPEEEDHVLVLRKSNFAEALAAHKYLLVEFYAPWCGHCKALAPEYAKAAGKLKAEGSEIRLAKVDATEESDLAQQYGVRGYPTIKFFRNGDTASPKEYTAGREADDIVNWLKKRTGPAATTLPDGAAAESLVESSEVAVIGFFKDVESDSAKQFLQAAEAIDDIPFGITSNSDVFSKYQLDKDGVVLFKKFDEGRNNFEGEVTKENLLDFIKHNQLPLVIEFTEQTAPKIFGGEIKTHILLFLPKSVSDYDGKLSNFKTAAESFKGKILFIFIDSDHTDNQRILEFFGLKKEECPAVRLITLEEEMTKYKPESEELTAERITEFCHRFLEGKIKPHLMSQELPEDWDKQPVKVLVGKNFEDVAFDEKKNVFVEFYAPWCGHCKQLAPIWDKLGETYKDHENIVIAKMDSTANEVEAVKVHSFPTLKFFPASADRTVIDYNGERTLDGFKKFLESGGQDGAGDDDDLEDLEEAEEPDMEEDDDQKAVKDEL
Assay: ITC; 600 μM KFWWFS injected into 27 μM PDI; 25 °C; 20 mM sodium phosphate, pH 7.0, 0.15 M NaCl; both treated with 1 mM DTT for 5 min before the measurement
Details: both partners purified

{"binder": "KFWWFS (model peptide without cysteine that mimics the exposed hydrophobic core of protein substrates; Immobilised on AR2G biosensors for BLI; also called model peptide; source: lyophilized peptide dissolved in 10 mM HCl) [peptide KFWWFS]", "Kd, µM": 6.8}
